Provenance of the data: patent US20210002231A1

measured target: GPR103 (Homo sapiens, UniProt Q96P65)
Construct: expressed in transfected cells; host or cells: CHO cells (gift from M. Parmentier, IRIBHM, Brussels), membranes
Sequence (Q96P65 whole entry): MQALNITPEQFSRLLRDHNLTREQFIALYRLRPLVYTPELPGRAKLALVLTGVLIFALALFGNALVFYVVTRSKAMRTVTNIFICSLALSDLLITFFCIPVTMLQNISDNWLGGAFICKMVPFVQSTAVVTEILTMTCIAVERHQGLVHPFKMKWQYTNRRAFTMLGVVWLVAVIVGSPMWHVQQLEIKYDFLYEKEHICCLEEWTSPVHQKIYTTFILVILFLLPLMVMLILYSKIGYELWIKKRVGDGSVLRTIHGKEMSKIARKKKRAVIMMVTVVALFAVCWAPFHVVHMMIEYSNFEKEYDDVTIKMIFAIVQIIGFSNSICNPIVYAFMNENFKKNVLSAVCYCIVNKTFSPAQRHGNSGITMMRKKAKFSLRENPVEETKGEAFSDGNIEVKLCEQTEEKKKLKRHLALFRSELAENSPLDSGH
method summary: Radioligand competition binding with [125I]-43RFa
settings: [125I]-43RFa; read-out: Ki ± SEM GPR103
readout label: pKi
Field pKi (float): negative decimal logarithm of the concentration in molar.

Look at this molecule and give its reported pKi. `Cc1cc(O)cc(C)c1C[C@H](N)C(=O)N[C@H](CCCNC(=N)N)C(=O)N[C@H]1Cc2ccccc2CN(CCC(=O)N[C@@H](CCCN2CCC(Cc3ccccc3)CC2)C(=O)N[C@@H](Cc2ccccc2)C(N)=O)C1=O` 5.92

###

measured target: human MOPr (Homo sapiens, UniProt P35372);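 as to MOPr (cAMP) Emax: Emax relative to DAMGO as 100%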
Sequence (P35372 whole entry): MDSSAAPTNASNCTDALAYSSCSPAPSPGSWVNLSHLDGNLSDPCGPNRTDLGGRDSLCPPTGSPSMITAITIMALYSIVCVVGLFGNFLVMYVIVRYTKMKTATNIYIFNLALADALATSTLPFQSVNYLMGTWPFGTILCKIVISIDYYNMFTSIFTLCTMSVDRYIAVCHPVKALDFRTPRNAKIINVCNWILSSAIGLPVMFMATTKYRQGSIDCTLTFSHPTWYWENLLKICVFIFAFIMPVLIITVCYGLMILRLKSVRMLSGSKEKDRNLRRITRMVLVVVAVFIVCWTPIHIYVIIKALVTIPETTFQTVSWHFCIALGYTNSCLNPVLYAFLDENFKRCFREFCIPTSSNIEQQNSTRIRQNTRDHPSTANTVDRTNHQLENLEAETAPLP
method summary: cell-based
Assay type: cell-based
Design: expressed in transfected cells; HEK293-Glo20F cells (cAMP)
settings: read-out: MOPr (cAMP) Emax
Starred links: 1 amine or outer side, 2 acyl side, 3 side chain; linkers in the order of their positions; H or OH if unused. Non-standard residues stand in square brackets, D forms with d. Residues, ends and D or L forms follow the SMILES beside them. Nva(5-(4-Bn-piperidin-1-yl)) = N[C@@H](CCCN1CCC(Cc2ccccc2)CC1)C(=O)O; X5 = O=C1[C@@H](N[*:1])Cc2ccccc2CN1CCCC(=O)[*:2]; X1 = O=C1[C@@H](N[*:1])Cc2ccccc2CN1CCC(=O)[*:2]; Tic(7-OH) = O=C(O)[C@@H]1Cc2ccc(O)cc2CN1; Dmt = Cc1cc(O)cc(C)c1C[C@H](N)C(=O)O
Please respond with reported Emax for every item in the list.
Kindly provide the numeric value in % only, without the unit symbol.

For `Cc1cc(O)cc(C)c1C[C@H](N)C(=O)N[C@@H](CCCN1CCCCC1)C(=O)N[C@@H](Cc1ccccc1)C(N)=O` , what is its reported Emax? 91

Emax lookup needed for N=C(N)NCCC[C@@H](NC(=O)[C@@H]1Cc2ccc(O)cc2CN1)C(=O)N[C@H]1Cc2ccccc2CN(CCC(=O)N[C@@H](CCCN2CCC(Cc3ccccc3)CC2)C(=O)N[C@@H](Cc2ccccc2)C(N)=O)C1=O [DP0031, 7-OH-Tic-D-Arg-Aba-β-Ala-Bpa-Phe-NH2] (H-[Tic(7-OH)][dR][X1][Nva(5-(4-Bn-piperidin-1-yl))]F-NH2; N-terminus assumed) , thanks. 46

Look up Emax for this compound: Cc1cc(O)cc(C)c1C[C@H](N)C(=O)N1CCC[C@@H]1C(=O)N[C@H]1Cc2ccccc2CN(CCC(=O)N[C@@H](CCCN2CCC(Cc3ccccc3)CC2)C(=O)N[C@@H](Cc2ccccc2)C(N)=O)C1=O [DP0008, H-Dmt-D-Pro-Aba-β-Ala-Bpa-Phe-NH2] (H-[Dmt][dP][X1][Nva(5-(4-Bn-piperidin-1-yl))]F-NH2) 53

// returns reported Emax for input `Cc1cc(O)cc(C)c1C[C@H](NC(=N)N)C(=O)N[C@H](CCCNC(=N)N)C(=O)N[C@H]1Cc2ccccc2CN(CCC(=O)N[C@@H](CCCN2CCC(Cc3ccccc3)CC2)C(=O)N[C@@H](Cc2ccccc2)C(N)=O)C1=O` 63

May I ask what Emax has been recorded for Cc1cc(O)cc(C)c1C[C@H](N)C(=O)N[C@H](CCCNC(=N)N)C(=O)N[C@H]1Cc2ccccc2CN(CCCC(=O)N[C@@H](CCCN2CCC(Cc3ccccc3)CC2)C(=O)N[C@H](C(N)=O)C(C)C)C1=O [DP0020, H-Dmt-D-Arg-AbaGABA-Bpa-Val-NH2] (H-[Dmt][dR][X5][Nva(5-(4-Bn-piperidin-1-yl))]V-NH2) ? 101

Would you kindly share the measured Emax for `Cc1cc(O)cc(C)c1C[C@H](N)C(=O)N(C)[C@H](C)C(=O)N[C@H]1Cc2c(ccc3ccccc23)CN(CC(=O)N[C@@H](CCCN2CCC(Cc3ccccc3)CC2)C(=O)N[C@@H](Cc2ccccc2)C(N)=O)C1=O` ? 76

Given the compound Cc1cc(O)cc(C)c1C[C@H](N)C(=O)N[C@H](CCCNC(=N)N)C(=O)N[C@H]1Cc2ccccc2CN(CCC(=O)N[C@@H](CCCN2CCC(Cc3ccccc3)CC2)C(=O)N[C@H](C(N)=O)C(C)C)C1=O [DP0001, H-Dmt-D-Arg-Aba-β-Ala-Bpa-Val-NH2] (H-[Dmt][dR][X1][Nva(5-(4-Bn-piperidin-1-yl))]V-NH2) , what is its reported Emax? 124
